# measured_target: Opioid receptors; mu & kappa (Homo sapiens) (UniProt P41145+P35372)
# Sequence (P41145 whole entry, looked up, one chain of several): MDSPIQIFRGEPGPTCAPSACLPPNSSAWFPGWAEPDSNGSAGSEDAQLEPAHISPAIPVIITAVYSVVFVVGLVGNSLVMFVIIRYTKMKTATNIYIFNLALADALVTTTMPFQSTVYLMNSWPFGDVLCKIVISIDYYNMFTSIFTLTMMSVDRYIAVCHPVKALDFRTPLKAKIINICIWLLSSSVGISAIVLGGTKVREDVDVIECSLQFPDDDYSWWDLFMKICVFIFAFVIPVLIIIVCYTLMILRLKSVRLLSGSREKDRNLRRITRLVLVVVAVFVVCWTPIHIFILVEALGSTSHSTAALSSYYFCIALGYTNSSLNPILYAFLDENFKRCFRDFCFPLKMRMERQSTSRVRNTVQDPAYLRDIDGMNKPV
# protocol_notes: Relative affinity for kappa 1 and mu opioid receptors
# Type: protein assay
metric: Ratio
Just the number, please, no unit attached.

NC(=O)[C@H](Cc1ccccc1)NC(=O)[C@H](Cc1ccccc1)NC(=O)[C@H]1CCCN1C(=O)[C@@H](N)Cc1ccccc1 ... 15000
Cc1cc(O)cc(C)c1C[C@H](N)[C@@H](O)C/C=C/[C@H](O)[C@@H](Cc1ccccc1)C(=O)NCCc1ccccc1 ... 140
Cc1cc(O)cc(C)c1C[C@H](N)[C@@H](O)C/C=C/[C@@H](O)[C@@H](Cc1ccccc1)C(=O)N[C@@H](Cc1ccccc1)C(N)=O ... 49

Read the next record carefully.
### Prompt Enter reported Ratio observed with Opioid receptors; mu & kappa (Homo sapiens) (UniProt P41145+P35372) for `Cc1cc(O)cc(C)c1C[C@H](N)[C@@H](O)C/C=C/[C@@H](O)[C@H](Cc1ccccc1)C(=O)N[C@@H](Cc1ccccc1)C(N)=O`
### Response 41

----------
# measured_target: Opioid receptors; mu & kappa (Homo sapiens) (UniProt P41145+P35372)
# protocol_notes: Relative affinity for kappa 1 and mu opioid receptors
# Assay type: protein assay
metric: Ratio
Just the number, please, no unit attached.

// known answers, use as guide
Cc1cc(O)cc(C)c1C[C@H](N)[C@H](O)C/C=C/[C@H](O)[C@@H](Cc1ccccc1)C(=O)NCCc1ccccc1 ... 210
Cc1cc(O)cc(C)c1C[C@H](N)[C@@H](O)C/C=C/[C@@H](O)[C@H](Cc1ccccc1)C(=O)NCCc1ccccc1 ... 94
Cc1cc(O)cc(C)c1C[C@H](N)[C@H](O)C/C=C/[C@@H](O)[C@@H](Cc1ccccc1)C(=O)N[C@@H](Cc1ccccc1)C(N)=O ... 16

Read the next record carefully.
### Prompt State the recorded Ratio for this entry: `Cc1cc(O)cc(C)c1C[C@H](N)[C@H](O)C/C=C/[C@H](O)[C@@H](Cc1ccccc1)C(=O)N[C@@H](Cc1ccccc1)C(N)=O`
### Response 13

----------
# measured_target: Mu-type opioid receptor (Homo sapiens, UniProt P35372)
# Sequence (P35372 whole entry): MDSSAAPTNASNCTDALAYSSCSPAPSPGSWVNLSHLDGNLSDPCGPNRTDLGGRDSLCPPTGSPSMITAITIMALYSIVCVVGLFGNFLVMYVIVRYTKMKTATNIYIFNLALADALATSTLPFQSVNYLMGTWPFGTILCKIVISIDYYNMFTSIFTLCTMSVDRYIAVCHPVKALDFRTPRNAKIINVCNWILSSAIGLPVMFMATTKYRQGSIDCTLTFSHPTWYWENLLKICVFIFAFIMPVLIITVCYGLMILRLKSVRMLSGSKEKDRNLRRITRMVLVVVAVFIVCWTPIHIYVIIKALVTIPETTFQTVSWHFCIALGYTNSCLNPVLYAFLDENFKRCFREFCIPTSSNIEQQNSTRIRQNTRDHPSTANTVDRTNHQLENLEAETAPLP
# protocol_notes: Displacement of [3H]DAMGO from human Opioid receptor mu 1 expressing CHO cells
# Type: cell-based
# applied_conditions: cho
metric: Ki (nM)
# output: bare number, implied unit nM

### Prompt State the recorded Ki for this entry: `NC(=O)[C@H](Cc1ccccc1)NC(=O)[C@H](Cc1ccccc1)NC(=O)[C@@H]1CCCN1C(=O)[C@@H](N)Cc1ccccc1`
### Response 0.69

----------
Listed here: items and their measured pEC50.
# measured_target: Mu-type opioid receptor (Homo sapiens)
# protocol_notes: Compound tested at 10 uM for the ability to induce Opioid receptor mu 1-mediated binding of [35S]GTP-gamma-S to G proteins in CHO membrane preparations
Lab note: report pEC50 as minus log10 of the concentration in molar units, number only.

// known answers, use as guide
Cc1cc(O)cc(C)c1C[C@H](N)[C@@H](O)C/C=C/[C@H](O)[C@@H](Cc1ccccc1)C(=O)OCCc1ccccc1 ... 8.38
Cc1cc(O)cc(C)c1C[C@H](N)[C@H](O)C/C=C/[C@H](O)[C@@H](Cc1ccccc1)C(=O)NCCc1ccccc1 ... 7.31
NC(=O)[C@H](Cc1ccccc1)NC(=O)[C@H](Cc1ccccc1)NC(=O)[C@@H]1CCCN1C(=O)[C@@H](N)Cc1ccccc1 ... 7.51

Read the next record carefully.
### Prompt State the recorded pEC50 for this entry: `Cc1cc(O)cc(C)c1C[C@H](N)[C@@H](O)C/C=C/[C@@H](O)[C@@H](Cc1ccccc1)C(=O)N[C@@H](Cc1ccccc1)C(N)=O`
### Response 8.10

----------
# measured_target: Mu-type opioid receptor (Homo sapiens, UniProt P35372)
# protocol_notes: Displacement of [3H]DAMGO from human Opioid receptor mu 1 expressing CHO cells
# Type: cell-based
metric: Ki (nM)
# output: bare number, implied unit nM

Cc1cc(O)cc(C)c1C[C@H](N)[C@H](O)C/C=C/[C@@H](O)[C@@H](Cc1ccccc1)C(=O)N[C@@H](Cc1ccccc1)C(N)=O ... 1.6
Cc1cc(O)cc(C)c1C[C@H](N)[C@H](O)C/C=C/[C@H](O)[C@@H](Cc1ccccc1)C(=O)N[C@@H](Cc1ccccc1)C(N)=O ... 1.2
Cc1cc(O)cc(C)c1C[C@H](N)[C@@H](O)C/C=C/[C@@H](O)[C@@H](Cc1ccccc1)C(=O)N[C@@H](Cc1ccccc1)C(N)=O ... 0.42
Cc1cc(O)cc(C)c1C[C@H](N)[C@H](O)C/C=C/[C@@H](O)[C@@H](Cc1ccccc1)C(=O)NCCc1ccccc1 ... 0.72
Cc1cc(O)cc(C)c1C[C@H](N)[C@@H](O)C/C=C/[C@H](O)[C@@H](Cc1ccccc1)C(=O)N[C@@H](Cc1ccccc1)C(N)=O ... 0.17

### Prompt State the recorded Ki for this entry: `Cc1cc(O)cc(C)c1C[C@H](N)[C@@H](O)C/C=C/[C@@H](O)[C@@H](Cc1ccccc1)C(=O)NCCc1ccccc1`
### Response 0.37

These measurements were taken from ChEMBL document CHEMBL1145973.
